Target system: UniProtKB O15379
Sequence (O15379 whole entry): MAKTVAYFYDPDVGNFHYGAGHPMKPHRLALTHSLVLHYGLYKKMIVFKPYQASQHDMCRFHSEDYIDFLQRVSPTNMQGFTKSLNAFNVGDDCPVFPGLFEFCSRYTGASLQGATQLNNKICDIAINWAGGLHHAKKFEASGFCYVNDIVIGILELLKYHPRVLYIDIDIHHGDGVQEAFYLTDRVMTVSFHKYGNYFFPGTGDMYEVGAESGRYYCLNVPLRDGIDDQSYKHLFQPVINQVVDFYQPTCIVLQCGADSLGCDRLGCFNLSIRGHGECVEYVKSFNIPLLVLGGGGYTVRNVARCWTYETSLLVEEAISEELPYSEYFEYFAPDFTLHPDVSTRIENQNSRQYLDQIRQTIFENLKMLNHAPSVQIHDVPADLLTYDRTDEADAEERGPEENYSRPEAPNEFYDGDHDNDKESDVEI
Test summary: Inhibition of human recombinant HDAC3 using Ac-Leu-Gly-Lys (Ac)-AMC as substrate at 1 uM preincubated for 10 mins followed by substrate addition and measured after 45 mins by TECAN microtiter plate reader analysis relative to control
Conditions: time 55.0 min
Readout: inhibition (%)
Provide only the numeric value, understood in %.

Chemical string: CCCNNC(=O)CCCCCCNCc1ccc(-c2cccc(-c3ccccc3)c2C)nc1OC
Target system: UniProtKB O15379
inhibition [%]: 55.8

Below: the item to evaluate.
Prompt: Using the record for "CCCNNC(=O)CCNCc1ccc(-c2cccc(-c3ccccc3)c2C)nc1OC" , report its inhibition.
Completion: 67.2

----------
Target system: Programmed cell death protein 1/Programmed cell death 1 ligand 1 (Homo sapiens) (UniProt Q15116+Q9NZQ7)
Test summary: Inhibition of PD-1/PD-L1 (unknown origin) interaction assessed as inhibition rate at 0.1 uM by HTRF assay relative to control
Type: protein-complex assay
Readout: inhibition (%)
Provide only the numeric value, understood in %.

Compound: CCCNNC(=O)c1cnc(N2CCC(NCc3ccc(-c4cccc(-c5ccccc5)c4C)nc3OC)CC2)nc1
Endpoint value: 3.6

Compound: CCCNNC(=O)CC1CCCN(Cc2ccc(-c3cccc(-c4ccccc4)c3C)nc2OC)C1 (stereo not drawn)
Endpoint value: 4.75

Below: the item to evaluate.
Prompt: Using the record for "CCCNNC(=O)CC1CCN(Cc2ccc(-c3cccc(-c4ccccc4)c3C)nc2OC)CC1" , report its inhibition.
Completion: 25.7

----------
Target system: Programmed cell death protein 1/Programmed cell death 1 ligand 1 (Homo sapiens)
Sequence (Q15116 whole entry): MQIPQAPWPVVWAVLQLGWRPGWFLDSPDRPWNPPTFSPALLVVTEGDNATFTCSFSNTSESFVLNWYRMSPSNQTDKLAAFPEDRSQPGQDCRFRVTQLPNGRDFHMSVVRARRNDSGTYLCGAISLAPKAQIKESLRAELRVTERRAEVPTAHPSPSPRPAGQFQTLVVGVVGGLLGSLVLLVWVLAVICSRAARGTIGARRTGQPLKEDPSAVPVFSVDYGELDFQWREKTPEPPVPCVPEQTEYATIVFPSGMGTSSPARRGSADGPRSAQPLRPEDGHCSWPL
Sequence (Q9NZQ7 whole entry): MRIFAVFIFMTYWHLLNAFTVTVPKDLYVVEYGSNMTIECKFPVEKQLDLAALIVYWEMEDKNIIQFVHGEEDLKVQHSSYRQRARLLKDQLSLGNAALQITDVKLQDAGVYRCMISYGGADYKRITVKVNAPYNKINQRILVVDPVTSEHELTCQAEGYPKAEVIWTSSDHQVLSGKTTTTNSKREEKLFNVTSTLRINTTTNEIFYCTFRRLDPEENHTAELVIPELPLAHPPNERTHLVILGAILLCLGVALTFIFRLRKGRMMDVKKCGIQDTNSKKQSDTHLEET
Test summary: Inhibition of PD-1/PD-L1 (unknown origin) interaction assessed as inhibition rate at 1 uM by HTRF assay relative to control
Format: protein-complex assay
Readout: IC50 (nM)
Provide only the numeric value, understood in nM.

Look over these answered cases.
Chemical string: CCCNNC(=O)CCCCCNCc1ccc(-c2cccc(-c3ccccc3)c2C)nc1OC
Target system: Programmed cell death protein 1/Programmed cell death 1 ligand 1 (Homo sapiens)
Result unit: nM
IC50: 213

Chemical string: CCCNNC(=O)c1cnc(NCCNCc2ccc(-c3cccc(-c4ccccc4)c3C)nc2OC)cn1
Target system: Programmed cell death protein 1/Programmed cell death 1 ligand 1 (Homo sapiens)
Result unit: nM
IC50: 64.9

Below: the item to evaluate.
Prompt: Using the record for "CCCNNC(=O)CCCCNCc1ccc(-c2cccc(-c3ccccc3)c2C)nc1OC" , report its IC50.
Completion: 71.6

These measurements were taken from ChEMBL document CHEMBL6109156.
